Tested on: HCT-116
procedureSummary: Cytotoxicity against human HCT116 cells by MTT assay
Assay type: functional
With a cut-off of 1000 nM, any GI50 strictly below it is called MET; any GI50 meeting it or above is called NOT MET.

Observe how each entry below is paired with its result.
is_below(GI50, 1000 nM) for O=C(/C=C/c1ccc(CNCCC2C3CC4CC(C3)CC2C4)cc1)NO (stereo not given) ?
MET

is_below(GI50, 1000 nM) for O=C(/C=C/c1ccc(CNC(=O)C23CC4CC(CC(C4)C2)C3)cc1)NO ?
MET

is_below(GI50, 1000 nM) for O=C(/C=C/c1ccc(CNC23CC4CC(CC(CO)(C4)C2)C3)cc1)NO ?
NOT MET

is_below(GI50, 1000 nM) for O=C(/C=C/c1ccc(CNCC23CC4CC(CC(C4)C2)C3)cc1)NO ?
MET

New cases:
is_below(GI50, 1000 nM) for O=C(/C=C/c1ccc(CNC(=O)C23CC4CC(CC2C4)C3)cc1)NO ?
MET

is_below(GI50, 1000 nM) for O=C(/C=C/c1ccc(CN2CC3CC4CC(C3)CC2C4)cc1)NO ?
NOT MET

---

procedureSummary: Inhibition of mouse liver HDAC by fluorescence assay
This section presents compounds with their documented pIC50 values.
Conceptually, pIC50 converts a concentration in mol/L into minus its log10.

Guide cases for pIC50, answers given:
Give the reported pIC50 for this compound. COC12CC3CC(CC(NCc4ccc(/C=C/C(=O)NO)cc4)(C3)C1)C2
6.59

Give the reported pIC50 for this compound. O=C(/C=C/c1ccc(CNC23CC4CC(CC(Cl)(C4)C2)C3)cc1)NO
7.40

Give the reported pIC50 for this compound. O=C(/C=C/c1ccc(CNC(=O)C23CC4CC(CC(F)(C4)C2)C3)cc1)NO
7.11

Give the reported pIC50 for this compound. O=C(/C=C/c1ccc(CNC23CC4CC(CC(C4)C2)C3)cc1)NO
7.15

Give the reported pIC50 for this compound. O=C(/C=C/c1ccc(CNC(=O)C23CC4CC(CC2C4)C3)cc1)NO
7.60

Give the reported pIC50 for this compound. O=C(/C=C/c1ccc(CNC(=O)C23CC4CC(CC(C4)C2)C3)cc1)NO
7.17

Give the reported pIC50 for this compound. CC(NCc1ccc(/C=C/C(=O)NO)cc1)C12CC3CC(CC1C3)C2 (stereo not given)
10.52

Give the reported pIC50 for this compound. O=C(/C=C/c1ccc(CNCCC2C3CC4CC(C3)CC2C4)cc1)NO (stereo not given)
9.55

New cases:
Give the reported pIC50 for this compound. O=C(/C=C/c1ccc(CNC23CC4CC(CC(O)(C4)C2)C3)cc1)NO
6.60

Give the reported pIC50 for this compound. O=C(/C=C/c1ccc(CNC2C3CC4CC(C3)CC2C4)cc1)NO (stereo not given)
7.22

---

This section presents compounds with their documented GI50 values.
Tested on: HCT-116
procedureSummary: Cytotoxicity against human HCT116 cells by MTT assay
Type: functional
Respond numerically; units are nM and should not be typed.

Guide cases for GI50, answers given:
Give the reported GI50 for this compound. CCOC12CC3CC(CC(NCc4ccc(/C=C/C(=O)NO)cc4)(C3)C1)C2
1000

Give the reported GI50 for this compound. O=C(/C=C/c1ccc(CNC(=O)CC23CC4CC(CC(C4)C2)C3)cc1)NO
1100

Give the reported GI50 for this compound. O=C(/C=C/c1ccc(CNCC23CC4CC(CC2C4)C3)cc1)NO
10

Shift focus to the following entry.
Give the reported GI50 for this compound. O=C(/C=C/c1ccc(CNC(=O)C23CC4CC(CC(F)(C4)C2)C3)cc1)NO
500
